- SYSTEM NAME: T1, 4H2354-AA
- T1 chain: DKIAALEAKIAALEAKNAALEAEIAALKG
- PROCEDURE DETAILS: two-hybrid library CCmax;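 further: natural log of median RNA to DNA barcode read ratio; higher means stronger binding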
- EXPERIMENTAL CONTEXT: mean of both orientations
ASSAY ENDPOINT: interaction score

Some entries whose results are on file:
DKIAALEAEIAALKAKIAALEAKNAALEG [4H2151-AA]
-1.44
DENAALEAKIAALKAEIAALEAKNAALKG [4H1352-AA]
-1.74
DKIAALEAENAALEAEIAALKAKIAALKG [4H2190-AA]
-0.303

A. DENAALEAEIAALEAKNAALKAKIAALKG [4H1086-AA]
B. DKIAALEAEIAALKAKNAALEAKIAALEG [4H2165-AA]
C. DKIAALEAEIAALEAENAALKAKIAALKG [4H2078-AA]
Order the records so the highest interaction score appears first and the lowest last. Response format: the labels, sorted as the prompt asks.
C, A, B
(C: -0.00435, A: -0.946, B: -1.76)

P. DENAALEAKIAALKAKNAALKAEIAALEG [4H1401-AA]
Q. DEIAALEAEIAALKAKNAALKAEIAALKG [4H122-AA]
R. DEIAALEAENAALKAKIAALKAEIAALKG [4H234-AA]
Arrange these 3 binders in increasing order of interaction score. Response format: the labels, sorted as the prompt asks.
P, R, Q

Origin of values: paper PMC10397247
